- System: intestinal microbiota (fecal samples) of human subjects
- test.description: in-vitro fermentations of fecal samples (intestinal microbiota-representing microarray) with phytonutrient precursor compounds; note: key: conversion (+); partial conversion (±); no conversion (−)
- Assay type: in vitro ADME
- run.parameters: fecal sample of Subject 11 (S11), in-vitro fermentation
outcome.measure: Phytonutrient Producer Status: conversion of the phytonutrient precursor compound, S11

compound	observed
COc1cc(C[C@@H](CO[C@@H]2O[C@H](CO)[C@@H](O)[C@H](O)[C@H]2O)[C@H](CO[C@@H]2O[C@H](CO)[C@@H](O)[C@H](O)[C@H]2O)Cc2ccc(O)c(OC)c2)ccc1O [Secoisolariciresinol diglucoside]	+
Oc1cc(O)c2c(c1)O[C@H](c1cc(O)c(O)c(O)c1)[C@H](O)C2 [Epigallocatechol]	+
O=c1oc2c(O)c(O)cc3c(=O)oc4c(O)c(O)cc1c4c23	−

Reference for the values: patent US11730778B2
